Tested on: NCI-H226 lung
Test: NCI tumour cell line growth inhibition, 48 h
For each record, write down the corresponding TGI.

Please report the measured TGI for CC(C)OC(=O)C1(C(C)C)CCc2ccc(C(=O)CCC(=O)O)cc21 (centres undefined)
> 100 µM

Report TGI, nothing else, for this compound: `COc1cccc2c(SCC(=O)Nc3ccccc3-c3ccccc3NC(=O)CSc3c4ccccc4nc4c(OC)cccc34)c3ccccc3nc12`
> 100 µM

Read off the recorded TGI for `CCN(CC)/[N+]([O-])=N/OCOC`
> 100 µM

Supply recorded TGI for `CSc1nnc(-c2cc3c([nH]c4ccccc43)c(-c3cccc(O)c3)n2)n1-c1ccc(C)cc1` here.
18 µM

Item `CN(CCCN1C(=O)c2cccc3cc([N+](=O)[O-])cc(c23)C1=O)CCN(C)CCCN1C(=O)c2cccc3cc([N+](=O)[O-])cc(c23)C1=O` : provide TGI
> 39.3 µM

Identify measured TGI associated with CCCCCCCCCC(=O)NC(CCC(=O)N(CCNC(=O)c1nc(-c2ccccc2)oc1-c1ccccc1)Cc1ccccc1)C(=O)O (centres undefined)
55.5 µM

Annotate the compound Cc1ccc(C)c(NC(=O)C(=O)C2C(=O)N(c3ccccc3)N=C2N)c1 (centres undefined) with its measured TGI.
> 100 µM

For the compound `C1=Nc2ccc(cc2)-c2ccc(cc2)N=Cc2ccc(cc2)OCc2cccc(n2)COc2ccc1cc2` , give its measured TGI value.
> 100 µM

Check the records and state TGI for `CC(=O)CCc1ccc(Oc2c3c(nc4ccccc24)OCC3)cc1`
78.8 µM

###

System: NCI-H226 lung
Experiment: NCI tumour cell line growth inhibition, 48 h
parameter: TGI

Check the records and state TGI for `CC(C)c1[nH]nc2c(NCc3ccc(-c4ccccn4)cc3)nc(SCCN(C)C)nc12`
0.706 µM

# return recorded TGI for input `CO/C=C1\OC(=O)C=C1OC`
> 100 µM

Identify measured TGI corresponding to `O=C(COC(=O)c1cccc2c(=O)c3ccccc3[nH]c12)Nc1ccc(Cl)cc1`
> 100 µM

Supply recorded TGI for `C=CCc1oc(C)nc1CCCC` here.
> 100 µM

Identify TGI associated with the compound `CC(=O)N1C(=O)c2cc3ccccc3cc21`
> 100 µM

Assign TGI to the following record: `CCC[CH2][Sn]([CH2]CCC)([O]C(=O)c1cc(F)ccc1F)[O]C(=O)c1cc(F)ccc1F`
2.92 µM

Please supply the value of reported TGI for the item O=CC(O)C(O)C1OC(=O)c2cc(O)c(O)c(O)c2C2=C(O)C(O)=C3OC(=O)c4c(c(O)c(O)c5c4C3C2C(=O)O5)-c2c(cc(O)c(O)c2O)C(=O)OCC1O (centres undefined)
> 100 µM

Name the recorded TGI of the item `O=c1oc2ccccc2c(O)c1C(c1cccc(C(c2c(O)c3ccccc3oc2=O)c2c(O)c3ccccc3oc2=O)c1)c1c(O)c2ccccc2oc1=O` in your answer.
> 100 µM

Identify measured TGI associated with `CC1=NN(c2cccc(Cl)c2)C(=O)/C1=C\C=C\c1ccccc1`
7.62 µM

###

Test system: SW-620 colon
Assay: NCI tumour cell line growth inhibition, 48 h
Task for the reader: assign each of the following molecules its reported TGI.

Specify measured TGI for `COc1c2cc([N+](=O)[O-])cc1CN(C(=O)C(F)(F)F)CCOCCN(C(=O)C(F)(F)F)C2` .
> 100 µM

Give recorded TGI. `CSc1ccc(NC(=O)Nc2cc(C)ccn2)cc1`
> 100 µM

Identify the reported TGI for the following entry. COc1ccc(C2Oc3c(cccc3-c3c(-c4ccc(O)cc4)oc4cc(O)cc(O)c4c3=O)C(=O)C2O)cc1O (centres undefined)
> 100 µM

Using the record for `Cc1cc2c(nn1)CCc1c-2no[n+]1[O-]` , state its measured TGI.
> 100 µM

For the molecule `COc1cc2c(NC3CCN(C(C)C)CC3)nc(C3CCCCC3)nc2cc1OCCCN1CCCC1` , give its measured TGI value.
6.45 µM

Report TGI, nothing else, for this molecule: `CN(c1ccccc1)c1nc(=[N+]2CCCC2)ss1`
> 100 µM

Give the value of TGI reported for the following: `CC(C)c1[nH]nc2c(NCc3ccc(-c4ccccn4)cc3)nc(SCCN(C)C)nc12`
12.1 µM

Look up and report measured TGI for this entry: Cc1ccc(C)c(NC(=O)C(=O)C2C(=O)N(c3ccccc3)N=C2N)c1 (centres undefined)
> 100 µM

Entry NC(Cc1cccnn1)C(=O)O (centres undefined) needs its TGI filled in; supply it.
> 100 µM

Given `CC1(C)OC[C@H](COCOP2(=O)Oc3ccc4ccccc4c3-c3c(ccc4ccccc34)O2)O1` , respond with its TGI.
29.7 µM

Tell me TGI reported for `COC(=O)[C@@H](NC(=O)[C@H](N)Cc1ccc(N(CCCl)CCCl)cc1)C(C)C`
> 77.3 µM

Provide one value: measured TGI of `O=C(O/N=c1/ccc(=O)/c(=N\OC(=O)c2ccccc2)c1=O)c1ccccc1`
> 100 µM

Given `O=[N+]([O-])c1cccc(S(=O)(=O)N/N=C/c2cc(I)cc([N+](=O)[O-])c2O)c1` , respond with its TGI.
58.5 µM

Let me know recorded TGI for O=CC(O)C(O)C1OC(=O)c2cc(O)c(O)c(O)c2C2=C(O)C(O)=C3OC(=O)c4c(c(O)c(O)c5c4C3C2C(=O)O5)-c2c(cc(O)c(O)c2O)C(=O)OCC1O (centres undefined) , thanks.
36.3 µM

Give a short answer stating reported TGI for `Nn1c(-c2cccc(Cl)c2)nc2ccccc2c1=O` .
> 100 µM

Recall and state the measured TGI for `Cc1c(NC(=O)CSC(=S)N(C)C)c(=O)n(-c2ccccc2)n1C` .
> 100 µM

Give me measured TGI, please, for this molecule: COc1cc([C@@H]2OC(=O)C3C2C(=O)O[C@H]3c2ccc(O)c(OC)c2)ccc1O (some centres undefined)
> 100 µM

Supply TGI value. Item: CC(=O)N1C(CCc2ccccc2)CC(C)(C=O)C1Cc1ccc(O[Si](C(C)C)(C(C)C)C(C)C)cc1 (centres undefined)
14.4 µM

Identify measured TGI corresponding to c1ccc2c(c1)SP1Sc3ccccc3P21 (centres undefined)
> 100 µM

State, in one line, measured TGI of `CCOC(=O)c1c(N2CCOCC2)ncn(-c2cccc(Cl)c2)c1=O`
> 100 µM

Specify TGI for `O=C1c2ccn(CCCNC(CO)(CO)CO)c2C(=O)c2c1c(O)c1ccccc1c2O` and stop.
18.6 µM

Supply reported TGI belonging to this molecule: `O=C(OCc1ccccc1)c1ccc(NCc2cc(O)ccc2O)cc1`
3.93 µM

Check the records and state TGI for `CSc1nnc(-c2cc3c([nH]c4ccccc43)c(-c3cccc(O)c3)n2)n1-c1ccc(C)cc1`
> 100 µM

Give TGI for the following molecule: `CCOC(=O)/C(C#N)=C\Sc1ccccc1`
72.6 µM

Identify measured TGI associated with `O=c1cc(-c2ccccc2)oc2cc(OCCCCCN3CCOCC3)cc(O)c12`
> 100 µM

For the molecule `CC1=NN(c2cccc(Cl)c2)C(=O)/C1=C\C=C\c1ccccc1` , give its measured TGI value.
3.44 µM

Give TGI for the following molecule: CCOC(=O)c1csc(C(CSCc2ccc(OC)cc2)N2C(=O)c3ccccc3C2=O)n1 (centres undefined)
> 100 µM

Determine its reported TGI: `C=CCSC1=N/C(=C\c2ccc(OC)cc2)C(=O)N1CC=C`
> 100 µM

Read off the recorded TGI for `C[C@H](CCC(=O)NCCS(=O)(=O)O)[C@H]1CC[C@H]2[C@@H]3[C@H](O)C[C@@H]4C[C@H](O)CC[C@]4(C)[C@H]3CC[C@]12C`
> 100 µM

Identify measured TGI corresponding to C[C@@]1(C(=O)O)CCC[C@]2(C)C1CC[C@]13C[C@@](O)(CO)[C@](O)(CC[C@]12O)C3 (some centres undefined)
> 100 µM

In one line, give reported TGI of the entry `CCC[CH2][Sn]([CH2]CCC)([O]C(=O)c1cc(F)ccc1F)[O]C(=O)c1cc(F)ccc1F` .
1.91 µM

Quote TGI reported for `CC(=Nc1cccc(Cl)c1)c1ccncc1` please.
> 100 µM

Note TGI for the molecule shown: N#CC(C(=N/O)/C(=N\O)C(C#N)c1ccccc1)c1ccccc1 (centres undefined)
> 100 µM

Indicate the recorded TGI value for this molecule: `CCOC(=O)N/N=C(\CC)NO`
> 100 µM

###

Test system: NCI-H226 lung
Assay: NCI tumour cell line growth inhibition, 48 h; in the data active means GI50 below about 0.43 µM; inactive means the rest
Lab note: assign the record to one of active, inactive

Please share the test call associated with `CC(=O)CCc1ccc(Oc2c3c(nc4ccccc24)OCC3)cc1` .
inactive

Tell me the assay call for `C[C@@H](CS[As](C)C)C(=O)N1CCC[C@H]1C(=O)O` please.
active

Hello, I am checking results. What call was entered for C=CCC(N[C@H](CO)c1ccccc1)c1ccccn1 (stereo partly drawn) ?
inactive

These entries and their values trace back to PubChem BioAssay (NCI).
